# method: Primary qHTS for delayed death inhibitors of the malarial parasite plastid, 96 hour incubation; also: potency is read from the fitted curve at half-maximal effect
# measurementConditions: P. falciparum luciferase reporter growth; series mostly up to 28.7 µM
Hit rate of the full screen: of about 320,000 compounds, about 22,000 (6.9%) were called active. Inconclusive results (about 27%) are left out. The list comes from a sample in which actives are over-represented; it also holds close analogues and randomly drawn compounds.
readoutLabel: Potency

• CCOC(=O)c1[nH]c2c(c1-c1ccccc1)C(=O)CC(c1ccc(Cl)cc1)C2 (centres undefined) = 9.28 µM (active)
• Cc1cnc(NC(=O)c2ccc(Cl)nc2)s1 = inactive
• CCOC(=O)c1[nH]c2c(c1C)C(=O)CC(c1ccc(N(C)C)cc1)C2 (centres undefined) = inactive
• CCOc1ccc(-c2cc(C)[n+](CCN(CC)CC)c(-c3ccc(OCC)cc3)c2)cc1 = 0.37 µM (active)
• CC(=O)N[C@@H](C)C(=O)N1CCC(n2nccc2NC(=O)CCCc2ccccc2)CC1 = inactive

For CCOc1ccc(S(=O)(=O)N2CCC(c3ccccc3)CC2)cc1C(=O)O , what is its reported Potency?
inactive

Same read-out for Cc1ccc(S(=O)(=O)N/N=C(\c2ccccc2)C2CC2)cc1 ?
inactive

// repeat for Cc1cc(/C=C2/SC(=O)N(CC(=O)N3CCCC3)C2=O)c(C)n1C and report
inactive

Query O=C(Nc1ccncc1)c1ccccc1[N+](=O)[O-] next
inactive

Please do the same for Cc1ccc(CCN2CC(C(=O)NCCc3ccccc3)CC2=O)cc1 (centres undefined) as well.
inactive

Similarly, CC(CN1CCOCC1)OC(=O)c1ccc(Cl)cc1Cl (centres undefined) ?
inactive

Follow-up item: Cc1ccc(S(=O)(=O)n2cccc2CO)cc1
inactive
